Biological target: T1, PUF4 RNA-binding domain (Saccharomyces cerevisiae, UniProt P25339 537-888)
T1 sequence: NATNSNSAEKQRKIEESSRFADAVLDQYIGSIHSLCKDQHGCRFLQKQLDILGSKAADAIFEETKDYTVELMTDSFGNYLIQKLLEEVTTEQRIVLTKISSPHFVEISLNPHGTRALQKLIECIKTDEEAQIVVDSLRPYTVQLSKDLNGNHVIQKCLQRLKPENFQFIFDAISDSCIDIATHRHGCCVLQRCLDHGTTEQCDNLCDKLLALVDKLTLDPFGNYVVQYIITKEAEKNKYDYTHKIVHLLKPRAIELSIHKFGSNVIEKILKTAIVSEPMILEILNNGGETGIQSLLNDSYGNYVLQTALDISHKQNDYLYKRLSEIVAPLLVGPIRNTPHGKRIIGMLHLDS
Test: Mg; RNA-MaP; 20 mM Na-HEPES pH 7.4, 30 mM KOAc, 0.75 mM MgCl2, 0.1% Tween-20, 5% glycerol, 0.1 mg/mL BSA, 2 mM DTT; 25 C; 0.0125-409.6 nM protein
Conditions: tags: N-His6-TEV cleaved; C-SNAP kept, Cy3B-labelled; label: tethered on chip by stalled RNA polymerase
Response field label: string, one of 1 (Kd strictly below 50 nM) or 0.

Solved cases (4 shown):
UCUCUUUGUAAGUUUCUCUU (ssRNA) [Ic_S1_P3E.1_K3.1_C3.1_H3.1_A3.1_[T5A]_[A6G]_F3.1_[A8T]_T3.1] = 0
Ic_S4_P4E.1_K4.1_C4.1_H4.1_A4.1_[T5C]_[A6G]_[T7C]_F4.1_[T8G]_[A9G]_T4.1 (ssRNA) RNA: UUUGACAACUGAUCGUUCUUUCUUGUACGCGGUUCUUUCUCGAUCAGUUGUCUUU = 0
UCUCUUUGUAAUUUAGUCUCUU (ssRNA) [Ic_S1_P5E.1_K5.1_C5.1_H5.1_A5.1_[T5A]_[A7T]_F5.1_[T9A]_[A10G]_T5.1] = 1
Id_ii_S2_P3E.3_K3.2_C3.2_H3.2_A3.1_F3.1_T3.2 (ssRNA) RNA: UUUGAUUAAUAUGAUAUCGUUCUUUCUCUUAUAUAUAUAUUCUUUCUCGAUAUCAUAUUAAUCUUU = 0

*Q* Is it true that Kd reported for Ie_S2_P4E.1_K4.1_C4.1_H4.1_[+2CTT]_A4.1_F4.1_T4.1 (ssRNA) RNA: UUUGAUUAAUAUGAUAUCGUUCUUUCUUGCUUUAUAUUAUUCUUUCUCGAUAUCAUAUUAAUCUUU is less than 50 nM?
*A* 0

Source: paper PMC9352680
